// data source = the antibiotic and cytotoxicity screens of Wong et al. (2023)

System: HepG2
method: cytotoxicity call (relative viability < 0.9)
condition parameters: 10 µM
The whole screen tested about 39,000 compounds, of which about 3,300 (8.5%) were called active. For the sample, actives were picked, then their nearest neighbours and some compounds at random.
Return exactly one item of class 1 = active, class 0 = inactive

Consider the worked cases shown below.
| compound | category |
| --- | --- |
| C=CCc1ccc(OC)cc1 | class 1 |
| CN1C[C@@H](C(=O)O)CN2CCN(C(=O)c3ccncc3F)C[C@@H]2C1 | class 0 |
| N[C@@H](C(=O)O)c1nn[nH]n1 | class 0 |
| CC1=NCCN=C(C)C1N1CCOCC1 | class 0 |
| NC1(Cc2ccc(Cl)cc2)CC1 | class 0 |

Please share the test call associated with Nc1nc(=O)c2ncn([C@H]3O[C@@H](COP(=O)(O)OP(O)(O)=S)[C@H](O)[C@@H]3O)c2[nH]1 .
class 0

Please share the test call associated with Cc1cc(O)ccc1Cl .
class 1

Please share the test call associated with CCN1CCN(c2nc(=O)cc(C)[nH]2)CC1 .
class 0

Please share the test call associated with CO[C@H]1C[C@H](O[C@H]2CC[C@]3(C=O)[C@H]4CC[C@]5(C)[C@@H](C6=CC(=O)OC6)CC[C@]5(O)[C@@H]4CC[C@]3(O)C2)O[C@H](C)[C@H]1O .
class 1

Please share the test call associated with COC1C(O)C(C)OC(OC2CCC3(C=O)C(CCC4C3CCC3(C)C(C5=CC(=O)OC5)CCC43O)C2)C1O (stereo unspecified) .
class 1

Please share the test call associated with O=C1C[C@@H](c2ccc(O)cc2)CN1 .
class 0

Please share the test call associated with O[C@H]1[C@H](O)[C@@H](O)CO[C@H]1NCCc1ccccc1 .
class 0

Please share the test call associated with O=C(C1CCCC1)N1C[C@@H]2CCNC[C@@H]21 .
class 0

Please share the test call associated with NCCc1ccc([N+](=O)[O-])cc1 .
class 0
